B1: glmS ribozyme (parent)
chain: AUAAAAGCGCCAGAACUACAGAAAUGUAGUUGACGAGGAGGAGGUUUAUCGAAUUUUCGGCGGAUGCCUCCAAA

- Variants of: B1
- ASSAY_SUMMARY: self-cleavage kobs at 2500 uM GlcN6P; higher = faster cleavage; RNA array
- CONDITIONS: with glucosamine-6-phosphate
Variants at the floor of the assay were thinned out.
READOUT_TYPE: self-cleavage kobs at 2500 uM GlcN6P (s⁻¹)
Value expressed in s⁻¹; do not type the unit.

As a guide, the following entries are already answered.
# VARIANT_SPEC, RESULT_UNIT, REPORTED_RESULT
records = [
    ("A14U G29U C67G", "s⁻¹", "6.46e-05"),
    ("A12U A14U", "s⁻¹", 0.00188),
    ("A15U C16U U49A C70G", "s⁻¹", "4.48e-05"),
    ("C50U C68A", "s⁻¹", "3.28e-05"),
    ("G32A U65G", "s⁻¹", 0.000139),
]

Note to self: self-cleavage kobs at 2500 uM GlcN6P recorded for A15G C16G C71G was 0.000115

Note to self: self-cleavage kobs at 2500 uM GlcN6P recorded for C10U U54A was 4.32e-05

Note to self: self-cleavage kobs at 2500 uM GlcN6P recorded for U31C U45A was 0.00783
